System: Klebsiella pneumoniae
Assay: Antibacterial activity against Klebsiella pneumonia assessed growth inhibition by micro broth dilution method
Assay type: functional
Lab note: class by MIC, see low-valued = under 8 µg/mL, mid-valued = from 8 µg/mL up to 60 µg/mL, high-valued = 60 µg/mL and over

CCOC(=O)c1cn(Cc2ccc(Cl)cc2)c2cc([C-](C#N)C(=O)OCC)c(F)cc2c1=O.[Na+] (stereo unspecified); low-valued
CCOC(=O)c1cn(Cc2ccccc2)c2cc(F)c(F)cc2c1=O; high-valued

IN: Class label required: CCOC(=O)c1cn(Cc2ccc(Cl)c(Cl)c2)c2cc(F)c(F)cc2c1=O
OUT: low-valued

IN: Class label required: CCOC(=O)c1cn(Cc2ccccn2)c2cc(F)c(F)cc2c1=O
OUT: high-valued

IN: Class label required: CCOC(=O)c1cn(Cc2ccccn2)c2cc([C-](C#N)C(=O)OCC)c(F)cc2c1=O.[Na+] (stereo unspecified)
OUT: high-valued
